biological target: Solute carrier family 12 member 5 (Homo sapiens, UniProt Q9H2X9); assay: concentration-response of KCC2 transport modulators – cell-based, HEK293 KCC2, FluoZin-2 fluorescence, dose response (AID 1736)
RECORDED METRIC: EC50 (µM)

• Cn1cc(C(=O)C(=O)N2CCCc3ccccc32)c2ccccc21 = 8.6
• CCCCCN1C/C=C\C(c2ccc(OC)cc2)N(Cc2ccc(F)cc2)C(=O)C1 (stereo not given) = 8.78
• CNC(=O)/C(=C\C=C\c1ccccc1)NC(=O)c1ccc([N+](=O)[O-])cc1 = 3.38
• O=S(=O)(NCc1ccccc1)c1ccc(Cl)c(S(=O)(=O)NCc2ccccc2)c1 = 1.7
• Cc1nn(-c2nc3ccccc3[nH]2)c(N)c1-c1ccccc1 = 24.4
• CC1CCN(C(=O)c2ccc(SCc3ccccc3F)c([N+](=O)[O-])c2)CC1 = 42.6
• Cc1ccc(/C=C2\SC(=S)N(c3c(C)n(C)n(-c4ccccc4)c3=O)C2=O)cc1 = 2.3
• CCOc1ccc2nc(Sc3cc(O)n(-c4cccc(OC)c4)c3O)sc2c1 = 11
• O=C(OC1CCc2ccccc2C1=O)c1ccccc1O (stereo not given) = 26.5
• Cc1nn2c(nc(O)c3ccccc32)c1C=O = 20.6
• CNc1ccc2oc(C[C@H]3O[C@@]4(CC[C@H]3C)O[C@H]([C@H](C)C(=O)c3ccc[nH]3)[C@H](C)C[C@H]4C)nc2c1C(=O)O = 9.96
• O=C(C1CCN(S(=O)(=O)c2cccc3nsnc23)CC1)N1CCc2ccccc2C1 = 23.8
• N#CC1=C(SCc2ccccc2)N=C(N)C(C#N)C12CCCCC2 (stereo not given) = 11.9
• O=S(=O)(Nc1nc2ccccc2nc1N1CCN(c2ccccn2)CC1)c1ccc(Cl)cc1 = 14.9
• O=C(NCc1ccc2c(c1)OCO2)c1ccc(COc2cc(Cl)ccc2Cl)o1 = 7.14
• Cc1ccc(NC(=O)c2ccccc2NS(=O)(=O)c2ccc(Cl)s2)cc1 = 1.07
• COc1ccc(-c2nnc(S/C(=C/c3ccc(Cl)cc3)C(=O)O)o2)cc1 = 0.388
• Cc1ccc(-c2noc(CN3CCN(Cc4ccccc4)CC3)n2)cc1 = 7.58
• O=C1OC(c2ccc(O)cc2)(c2ccc(O)cc2)c2ccccc21 = 1.8
• O=C(OCn1ncc(Cl)c(Cl)c1=O)c1ccc(F)cc1 = 3.32

* * *

molecular target: Solute carrier family 12 member 5 (Homo sapiens, UniProt Q9H2X9); assay: concentration-response of KCC2 transport modulators – cell-based, HEK293 KCC2, FluoZin-2 fluorescence, dose response (AID 1736)
So basically: is EC50 under 5 µM? Then Criterion met. Not under? Then Criterion not met.

• CCCn1c(N)c(C(=O)CSc2nnc(Cc3ccccc3)o2)c(=O)n(C)c1=O = Criterion met
• COc1ccc(S(=O)(=O)N(CCc2ccccc2)CC(=O)O)cc1Cl = Criterion not met
• CC12CC3(C)CC(C)(C1)CC(C(=O)NC(=S)N1CCCC1)(C2)C3 = Criterion met
• Cc1[nH]c2ccccc2c1Cc1n[nH]c(=S)n1C = Criterion not met
• O=C(CSc1nnc(-c2ccc(F)cc2)o1)N1CCN(C(=O)c2ccco2)CC1 = Criterion not met
• CCn1nnnc1SCC(=O)Nc1nc(-c2cccs2)cs1 = Criterion met
• CC(C)CCNC(=O)COC(=O)/C=C/c1ccc2ccccc2n1 = Criterion met
• CC(=NNC(=O)c1ccc(Br)cc1)c1ccccc1 = Criterion met
• CCc1ccc(OCCNC(=O)c2ccccc2SCc2ccccc2)cc1 = Criterion not met
• Cc1[nH]c2ccccc2c1Cc1nnc(S)o1 = Criterion met

* * *

Let's look at some compounds and their measured pEC50.
Molecular target: Solute carrier family 12 member 5 (Homo sapiens, UniProt Q9H2X9)
Sequence (Q9H2X9 whole entry): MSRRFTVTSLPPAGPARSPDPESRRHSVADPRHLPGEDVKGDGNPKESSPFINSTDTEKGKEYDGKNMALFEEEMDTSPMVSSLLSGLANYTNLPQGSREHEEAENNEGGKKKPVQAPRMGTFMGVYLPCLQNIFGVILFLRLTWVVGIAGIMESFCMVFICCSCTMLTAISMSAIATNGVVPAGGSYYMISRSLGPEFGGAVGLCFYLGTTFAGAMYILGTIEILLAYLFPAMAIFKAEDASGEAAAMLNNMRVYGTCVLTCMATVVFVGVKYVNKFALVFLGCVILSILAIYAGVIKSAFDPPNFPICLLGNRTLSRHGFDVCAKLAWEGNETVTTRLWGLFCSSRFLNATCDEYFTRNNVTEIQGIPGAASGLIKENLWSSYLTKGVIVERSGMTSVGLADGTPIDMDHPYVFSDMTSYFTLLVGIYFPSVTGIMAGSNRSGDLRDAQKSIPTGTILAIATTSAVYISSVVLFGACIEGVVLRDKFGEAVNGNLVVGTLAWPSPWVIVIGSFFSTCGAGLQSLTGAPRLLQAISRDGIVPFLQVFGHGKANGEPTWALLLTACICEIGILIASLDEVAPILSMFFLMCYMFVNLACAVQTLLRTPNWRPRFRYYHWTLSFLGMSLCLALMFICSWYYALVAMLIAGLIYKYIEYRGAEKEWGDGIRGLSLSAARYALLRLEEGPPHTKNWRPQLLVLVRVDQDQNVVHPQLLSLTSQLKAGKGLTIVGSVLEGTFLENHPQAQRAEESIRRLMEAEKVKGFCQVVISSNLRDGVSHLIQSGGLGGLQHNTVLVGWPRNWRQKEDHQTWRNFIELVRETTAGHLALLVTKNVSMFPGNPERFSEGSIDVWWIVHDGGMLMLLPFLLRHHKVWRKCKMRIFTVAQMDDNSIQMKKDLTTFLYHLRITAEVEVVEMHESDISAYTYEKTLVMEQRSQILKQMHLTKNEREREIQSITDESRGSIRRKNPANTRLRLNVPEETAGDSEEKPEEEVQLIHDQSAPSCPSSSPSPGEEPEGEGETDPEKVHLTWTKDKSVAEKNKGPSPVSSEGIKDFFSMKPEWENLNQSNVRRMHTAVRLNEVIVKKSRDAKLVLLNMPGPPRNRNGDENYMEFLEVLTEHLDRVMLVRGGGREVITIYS
Assay: concentration-response of KCC2 transport modulators – cell-based, HEK293 KCC2, FluoZin-2 fluorescence, dose response (AID 1736)
pEC50: −log10 of the molar value. Non-standard residues stand in square brackets, D forms with d. Residues, ends and D or L forms follow the SMILES beside them. ξ: configuration not given here. *: point of attachment. ξF = NC(Cc1ccccc1)C(=O)O; Cbz = O=C(OCc1ccccc1)*
RECORDED METRIC: pEC50

- Cc1cc([N+](=O)[O-])ccc1NCc1ccccc1: 5.43
- CC(=NNC(=O)c1ccc(Cl)c(Cl)c1)c1ccc(Br)s1: 5.84
- Sc1nnc(Nc2ccccc2)s1: 3.20
- S=C(NN=Cc1cccc2ccccc12)Nc1cccc(Cl)c1: 5.08
- O=C(Cn1cnc2c(nnn2-c2ccccc2)c1=O)NCCc1ccccc1: 5.60
- O=C(C1CCN(c2nc3ccc(Br)cc3s2)CC1)N1CCC2(CC1)OCCO2: 5.28
- Cc1ccc2oc(-c3ccc(C)c(NC(=S)NC(=O)c4cccs4)c3)nc2c1: 6.12
- CCC(Cc1ccccc1)NC(=O)CN(C)S(=O)(=O)c1ccc2c(c1)c(=O)n(C)c(=O)n2C (stereo unspecified): 5.11
- O=C(O)CC/C(=C\c1ccc(N2CCCC2)c([N+](=O)[O-])c1)c1nc2ccccc2s1: 3.63
- CCOC(=O)CNC(=O)C(Cc1ccccc1)NC(=O)OCc1ccccc1 (stereo unspecified) (Cbz-[ξF]-Gly-OEt): 5.67
- Sc1nnc(Cc2cccc3ccccc23)o1: 6.55
- NC(=O)COc1ccccc1/C=C1/SC(=O)N(CC(=O)N2CCc3ccccc3C2)C1=O: 1.97
- COc1ccccc1C(=O)NC1CCN(C(=S)NCCc2ccccc2)CC1: 5.37
- O=C(Cn1cnc2c(nnn2Cc2ccc(F)cc2)c1=O)N1CCN(c2ccccc2)CC1: 5.78
- CC1Cc2ccccc2N1C(=O)/C=C/c1cccc(F)c1 (stereo unspecified): 3.72
- COc1cc(OC)c(C2=NOC(C(=O)NCCc3ccccc3)C2)cc1Cl (stereo unspecified): 4.33
- CCCCCC(=O)Cc1cc(O)cc2c1C(=O)Oc1cc(O)c(C(=O)O)c(CCCCC)c1O2: 5.09
- Sc1nnc(C2(c3ccccc3)CCCC2)o1: 5.88
- O=C(CNC(=O)/C(=C/c1ccccc1)NC(=O)c1ccc(Br)cc1)OCc1ccccc1: 5.70
- O=C(NC(=S)Nc1cccc2cccnc12)c1cccs1: 6.81
- CCOc1cc(S(=O)(=O)NCc2ccccc2)ccc1F: 5.27
- COc1ccc(N2C(=S)N=C(Nc3cccc(C)c3)C23CCCCC3)cc1: 4.85
- CCC(CC)NC(=O)CSc1nnc(-c2c[nH]c3ccccc23)o1: 5.69
- CS(=O)(=O)N(CC(=O)N1CCN(c2ccccc2)CC1)c1cccc(Br)c1: 5.43
- Cc1c(C(=O)NCCSCc2ccc(F)cc2)cnn1-c1ccc(Cl)cc1: 3.33
- O=C(NCc1cccnc1)c1ccc(COc2ccccc2Br)o1: 4.86
- Cc1cccc(OCCc2nnc(N)s2)c1C: 5.21
- O=C(CC(Cc1ccccc1)c1ccco1)NC1CCCCC1 (stereo unspecified): 5.52
- O=C(CSc1ccc(-c2ccccc2)nn1)N1CCCc2ccccc21: 4.87
- Cc1ccc(OCCC(=O)OCC(=O)N2c3ccccc3CC2C)cc1 (stereo unspecified): 5.57
- Fc1cccc(F)c1C=NNC(=S)Nc1cccnc1: 5.03

Data provenance: BindingDB's records for doi:10.7270/Q2M32T6M
